B1: glmS ribozyme (parent)
chain: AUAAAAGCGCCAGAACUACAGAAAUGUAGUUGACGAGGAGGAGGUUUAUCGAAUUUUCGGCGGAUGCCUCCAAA

variants of: B1; assay: kcat; higher = faster cleavage; RNA array; conditions: with glucosamine-6-phosphate
Fewer inactive variants are shown than the library holds.
Recorded kcat, one value per entry.
measure_name: kcat (s⁻¹)

mutation_id | measure_name | unit_spec | qual | measured
C34A G51C | kcat | s⁻¹ | < | 1e-05
C67U | kcat | s⁻¹ | = | 0.0229
U30A C67G | kcat | s⁻¹ | = | 0.000166
A12U U31C | kcat | s⁻¹ | = | 0.011
